pKi: −log10 of the molar value.
From various publications: pKi for Carbonic anhydrase 9 (Homo sapiens, UniProt Q16790).

These recorded examples may help you get a feel for the data.
- compound: "Cc1ccc(C(C)C)c(OCCCCCCCOc2ccc3ccc(=O)oc3c2)c1"
  pKi: 7.43
- compound: "NS(=O)(=O)c1ccc(NC(=S)NC(=O)c2ccc(Br)cc2)cc1"
  pKi: "< 4.00"
- compound: "NC1=NC2(CCCCC2)N(c2ccc(S(=O)(=O)Nc3ccccn3)cc2)C(N)=N1"
  pKi: "< 5.00"

Kindly review the next compound as well.
[in] // lookup pKi | system=Carbonic anhydrase 9 (Homo sapiens, UniProt Q16790) | key= CC1CCC2(CC1)N=C(N)N=C(N)N2c1ccc(S(=O)(=O)Nc2ccccn2)cc1 (stereo not shown)
[out] < 5.00
